tested on: HOP-62 NSCLC; assay: NCI-60 one-dose screen, 48 h (100 = growth as untreated, 0 = no growth, -100 = all killed); conditions: 10 µM unless noted
About 83,000 compounds went through this panel and 20% of them were active in at least one assay; those are over-represented in the sample as a whole.
endpoint: growth (%)
One number for each entry, in %.

The examples below pair each entry with its known result.
{"compound": "CN1CCN(c2ccc(Nc3nc(NCCNS(=O)(=O)c4ccc5ccccc5c4)c4sccc4n3)cc2)CC1", "growth (%)": 97.5}
{"compound": "CCCCSC1=C(Cl)CN(c2ccccc2)C1=O", "growth (%)": 111}
{"compound": "O=C(CSc1nnc(-c2cccs2)n1-c1ccccc1)Nc1ccccc1", "growth (%)": 46.7}
{"compound": "N#Cc1nc(-c2ccc(Cl)cc2)oc1N1CCC(S(=O)(=O)N2CCOCC2)CC1", "growth (%)": 94.6}
{"compound": "O=C1CSC(c2cn(-c3ccccc3)nc2-c2ccc(Cl)cc2)N1c1ccccc1 (stereo not given)", "growth (%)": 99.6}
{"compound": "COc1ccc(/C(=N\\N=C(N)N)c2ccc(Cl)cc2)cc1OC", "growth (%)": 69.1}
{"compound": "CC1CC(=O)C2=C(C1)Nc1ccc(Br)cc1CC2c1c[nH]c2ccc(Br)cc12 (stereo not given)", "growth (%)": 65.2}
{"compound": "O=C(CSc1nc2ccccc2c(=O)n1-c1ccccc1)N/N=C/c1ccc(Oc2ccc(Cl)cc2)cc1", "growth (%)": 59.1}

// input: 6 compounds below; output: growth for each
1. CC(O)c1cccc(/C(N)=N/C(N)=N/c2nc3ccccc3s2)c1 (stereo not given)
2. CC1=C(SCC(=O)OCCCCCC(C)C)C(=O)c2ccccc2C1=O
3. CN(C)CCNc1ccc2ncc(C#Cc3cncc(C(=O)Nc4ccc(CN5CCN(C)CC5)c(C(F)(F)F)c4)c3)n2n1
4. CC1(C)C=Cc2cc(/C(N)=N/C(N)=N/c3nc4ccccc4s3)ccc2O1
5. COc1ccc2[nH]cc(/C=N/Nc3ccnc4cc(Cl)ccc34)c2c1
6. CCc1cc2c(cc1Cl)nc1c(=O)[nH]c(=O)nc-1n2CCOCC(C)(C)C

RESULT:
1: 98.6; 2: 106; 3: -37.2; 4: 5.82; 5: -56.7; 6: 104

Reference source: PubChem BioAssay (NCI)
